target: c-Src (Homo sapiens (Human), UniProt P12931)
Sequence (P12931 whole entry, looked up): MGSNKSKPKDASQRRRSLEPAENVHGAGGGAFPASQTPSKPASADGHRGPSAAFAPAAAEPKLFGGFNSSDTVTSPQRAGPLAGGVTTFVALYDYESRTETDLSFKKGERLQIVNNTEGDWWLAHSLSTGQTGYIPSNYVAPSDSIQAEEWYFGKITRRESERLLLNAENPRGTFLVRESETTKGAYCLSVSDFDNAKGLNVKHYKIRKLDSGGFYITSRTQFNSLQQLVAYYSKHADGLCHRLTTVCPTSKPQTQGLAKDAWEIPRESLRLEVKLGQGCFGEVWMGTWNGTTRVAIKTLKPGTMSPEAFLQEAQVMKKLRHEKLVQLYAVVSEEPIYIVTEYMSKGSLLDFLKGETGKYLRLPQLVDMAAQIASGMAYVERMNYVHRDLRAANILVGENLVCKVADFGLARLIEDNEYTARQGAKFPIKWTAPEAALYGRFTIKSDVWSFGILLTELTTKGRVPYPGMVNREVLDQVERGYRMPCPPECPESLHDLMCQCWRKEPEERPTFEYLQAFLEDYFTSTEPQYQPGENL
Reported pIC50 values follow for various compounds
Here pIC50 is given on a logarithmic scale as minus log10 of the concentration in mol/L.

Please fill in: pIC50 reported for COc1c(CNC(C)=O)cc(C(C)(C)C)cc1NC(=O)Nc1ccc(Oc2ccnc(Nc3cc(C#N)cc(OCCN4CCOCC4)c3)c2)c2ccccc12 = 7.40

Please fill in: pIC50 reported for COc1cc(Nc2cc(Oc3ccc(NC(=O)Nc4cc(C(C)(C)C)cc(C(=O)NCCN5CCOCC5)c4OC)c4ccccc34)ccn2)cc(OC)c1 = 6.98

Please fill in: pIC50 reported for COc1cccc(Nc2cc(Oc3ccc(NC(=O)Nc4cc(C(C)(C)C)cc(P(C)(C)=O)c4OC)c4ccccc34)ccn2)c1 = 7.11

###

IC50 tested on Syk (Homo sapiens (Human), UniProt P43405): recorded values

A selection of reference data follows.
>>> df
                                   molecule  readout  measurement
0  COc1cc(Nc2cc(Oc3ccc(NC(=O)Nc4cc(C(C)(C)C)cc(P(C)(C)=O)c4OC)c4ccccc34)ccn2)cc(S(=O)(=O)N(C)CCN2CCN(C)CC2)c1 [79(m)]     IC50         7 nM
1  COc1cc(Nc2cc(Oc3ccc(NC(=O)Nc4cc(C(C)(C)C)cc(CC(N)=O)c4OC)c4ccccc34)ccn2)cc(OC)c1 [Example 30]     IC50       708 nM

Here's the next entry for you.
Please fill in: IC50 reported for COc1c(CC(N)=O)cc(C(C)(C)C)cc1NC(=O)Nc1ccc(Oc2ccnc(Nc3cccc(OC(F)F)c3)c2)c2ccccc12 [38(s)] = > 1520 nM

###

tested on: PBMCs; experiment: LPS-induced IL-8 release in PBMC cells (assay b); type: cell-based, human; conditions: Homo sapiens, PBMC; LPS-stimulated PBMCs; read-out: IC50 Values for Inhibition of Cytokine Release, PBMCs IL-8
Reported IC50 values follow for various molecules
State the answer as a number, implicitly in nM.

Here COc1cc(Nc2cc(Oc3ccc(NC(=O)Nc4cc(C(C)(C)C)cc(CC(N)=O)c4OC)c4ccccc34)ccn2)cc(P(C)(C)=O)c1 was tested on PBMCs, and its IC50 came to 1.2

Here COc1cncc(Nc2cc(Oc3ccc(NC(=O)Nc4cc(C(C)(C)C)cc(CC(N)=O)c4OC)c4ccccc34)ccn2)c1 was tested on PBMCs, and its IC50 came to 1.4

Here COc1cc(Nc2cc(Oc3ccc(NC(=O)Nc4cc(C(C)(C)C)cc(CC(N)=O)c4OC)c4ccccc34)ccn2)cc(S(C)(=O)=O)c1 was tested on PBMCs, and its IC50 came to 1.2

Here COc1c(CNC(C)=O)cc(C(C)(C)C)cc1NC(=O)Nc1ccc(Oc2ccnc(Nc3cc(C#N)cc(OCCN4CCOCC4)c3)c2)c2ccccc12 was tested on PBMCs, and its IC50 came to 1.2

Here COc1cc(Nc2cc(Oc3ccc(NC(=O)Nc4cc(C(C)(C)C)cc(OCCO)c4OC)c4ccccc34)ccn2)cc(C(N)=O)c1 was tested on PBMCs, and its IC50 came to 1.1

Here COc1c(CNC(C)=O)cc(C(C)(C)C)cc1NC(=O)Nc1ccc(Oc2ccnc(NCc3ccccn3)c2)c2ccccc12 was tested on PBMCs, and its IC50 came to 1.4

###

test system: PBMCs; test: LPS-induced IL-8 release in PBMC cells (assay b); type: cell-based, human; conditions: Homo sapiens, PBMC; LPS-stimulated PBMCs; read-out: IC50 Values for Inhibition of Cytokine Release, PBMCs IL-8
Readout: pIC50
Here pIC50 is given on a logarithmic scale as minus log10 of the concentration in mol/L.

A selection of reference data follows.
>>> print(df.to_string())
                                smiles_repr  measured_target  readout  measurement
0  COc1c(NC(=O)Nc2ccc(Oc3ccnc(NCc4ccccn4)n3)c3ccccc23)cc(C(C)(C)C)cc1P(C)(C)=O            PBMCs    pIC50         8.74
1  CNC(=O)c1cc(CN2CCN(C)CC2)cc(Nc2cc(Oc3ccc(NC(=O)Nc4cc(C(C)(C)C)cc(P(C)(C)=O)c4OC)c4ccccc34)ccn2)c1            PBMCs    pIC50         7.64
2  COc1cc(Nc2cc(Oc3ccc(NC(=O)Nc4cc(C(C)(C)C)cc(P(C)(C)=O)c4OC)c4ccccc34)ccn2)ccc1C(=O)NCCN1CCOCC1            PBMCs    pIC50         8.57
3  COc1c(NC(=O)Nc2ccc(Oc3ccnc(Nc4ccccc4)c3)c3ccccc23)cc(C(C)(C)C)cc1P(C)(C)=O            PBMCs    pIC50         8.64
4  COc1cc(Nc2cc(Oc3ccc(NC(=O)Nc4cc(C(C)(C)C)cc(CC(N)=O)c4OC)c4ccccc34)ccn2)cc(C(=O)NCCCN2CC[S+]([O-])CC2)c1            PBMCs    pIC50         8.42

Here's the next entry for you.
Please fill in: pIC50 reported for COc1c(NC(=O)Nc2ccc(Oc3ccnc(NCCn4cccn4)n3)c3ccccc23)cc(C(C)(C)C)cc1P(C)(C)=O = 8.39

###

molecular target: p38 MAPKα isoform (MAPK14) (Homo sapiens (Human)); assay: p38 MAPKα enzyme inhibition (FRET, Z-LYTE, Method 2)
Sequence (Q16539 whole entry, canonical isoform): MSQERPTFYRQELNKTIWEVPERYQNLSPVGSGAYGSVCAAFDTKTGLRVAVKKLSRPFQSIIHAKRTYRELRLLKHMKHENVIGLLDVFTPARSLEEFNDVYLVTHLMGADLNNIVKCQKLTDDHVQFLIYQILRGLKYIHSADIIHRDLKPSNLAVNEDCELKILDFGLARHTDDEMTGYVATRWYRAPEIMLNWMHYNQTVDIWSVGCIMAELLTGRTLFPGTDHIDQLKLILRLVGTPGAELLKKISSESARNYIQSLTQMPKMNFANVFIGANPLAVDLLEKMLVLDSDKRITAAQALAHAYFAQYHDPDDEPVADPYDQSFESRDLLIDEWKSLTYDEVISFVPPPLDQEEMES
Readout: IC50 (nM)
State the answer as a number, implicitly in nM.

In [3]: df
Out[3]:
                                   molecule  measurement
0  COc1cc(Nc2cc(Oc3ccc(NC(=O)Nc4cc(C(C)(C)C)cc(CC(N)=O)c4OC)c4ccccc34)ccn2)cc(S(=O)(=O)N(C)C)c1 [38(aj)]          295
1  COc1cc(Nc2cc(Oc3ccc(NC(=O)Nc4cc(C(C)(C)C)cc(P(C)(C)=O)c4OC)c4ccccc34)ccn2)cc(S(=O)(=O)N(C)CCCN2CCOCC2)c1 [79(d)]           39
2  COc1c(CC(N)=O)cc(C(C)(C)C)cc1NC(=O)Nc1ccc(Oc2ccnc(Nc3cc(C)cc(C)c3)c2)c2ccccc12 [38(f)]          226

Here COc1c(NC(=O)Nc2ccc(Oc3ccnc(Nc4ccccc4)c3)c3ccccc23)cc(C(C)(C)C)cc1[S+](C)[O-] (racemic) [Example 12] was tested on p38 MAPKα isoform (MAPK14) (Homo sapiens (Human)), and its IC50 came to 193

Here COCCOCCOCCOc1cc(Nc2cc(Oc3ccc(NC(=O)Nc4cc(C(C)(C)C)cc(CS(C)(=O)=O)c4OC)c4ccccc34)ccn2)cc(OC)c1 [15(a)] was tested on p38 MAPKα isoform (MAPK14) (Homo sapiens (Human)), and its IC50 came to 177

Here COCCOCCOCCOc1cc(Nc2cc(Oc3ccc(NC(=O)Nc4cc(C(C)(C)C)cc(S(C)(=O)=O)c4OC)c4ccccc34)ccn2)cc(OC)c1 [Example 9] was tested on p38 MAPKα isoform (MAPK14) (Homo sapiens (Human)), and its IC50 came to 290

Here COc1cc(Nc2cc(Oc3ccc(NC(=O)Nc4cc(C(C)(C)C)cc(CC(N)=O)c4OC)c4ccccc34)ccn2)cc(OC)c1 [Example 30] was tested on p38 MAPKα isoform (MAPK14) (Homo sapiens (Human)), and its IC50 came to 132

Here COc1cc(Nc2cc(Oc3ccc(NC(=O)Nc4cc(C(C)(C)C)cc(CC(N)=O)c4OC)c4ccccc34)ccn2)ccc1C(=O)NCC(CO)(CO)CO [Example 73] was tested on p38 MAPKα isoform (MAPK14) (Homo sapiens (Human)), and its IC50 came to 31

Here COCCOCCOCCNC(=O)c1cc(Nc2cc(Oc3ccc(NC(=O)Nc4cc(C(C)(C)C)cc(C(=O)NCCN5CCOCC5)c4OC)c4ccccc34)ccn2)cc(OC)c1 [Example 59] was tested on p38 MAPKα isoform (MAPK14) (Homo sapiens (Human)), and its IC50 came to 127

###

system: PBMCs; test: IL-2 release in CD3/CD28 stimulated PBMC cells (assay c); type: cell-based; conditions: Homo sapiens, read-out: IC50 Values for Inhibition of Cytokine Release, PBMCs IL-2
Please use true (1) for IC50 under 60 nM and false (0) for everything else, ties included.

is_below(IC50, 60 nM) for COc1cc(Nc2cc(Oc3ccc(NC(=O)Nc4cc(C(C)(C)C)cc(CC(N)=O)c4OC)c4ccccc34)ccn2)cc(C(N)=O)c1 [Example 47] ?
true (1)

is_below(IC50, 60 nM) for COCCOCCOCCNC(=O)c1cc(Nc2cc(Oc3ccc(NC(=O)Nc4cc(C(C)(C)C)cc(CC(N)=O)c4OC)c4ccccc34)ccn2)cc(OC)c1 [Example 53] ?
true (1)

is_below(IC50, 60 nM) for COc1c(NC(=O)Nc2ccc(Oc3ccnc(Nc4ccccc4)c3)c3ccccc23)cc(C(C)(C)C)cc1[S+](C)[O-] (racemic) [Example 12] ?
false (0)

is_below(IC50, 60 nM) for COc1c(CC(N)=O)cc(C(C)(C)C)cc1NC(=O)Nc1ccc(Oc2ccnc(Nc3cc(C)cc(C)c3)c2)c2ccccc12 [38(f)] ?
false (0)

is_below(IC50, 60 nM) for COc1cc(Nc2cc(Oc3ccc(NC(=O)Nc4cc(C(C)(C)C)cc([S+](C)[O-])c4OC)c4ccccc34)ccn2)cc(C(N)=O)c1 (stereo not drawn) [Example 55] ?
true (1)
